- Organism: Mus musculus
- test_name: Compound was evaluated for maximal electroshock antagonism (MES) against mice
- Format: functional
Recorded ED50, one value per entry.

Reference set, count: 2
COC(=O)NC1=NC(c2ccc(Cl)cc2)CN1 (stereo not drawn) : ~200 mg/kg
COC(=O)NC1=NC(c2cccc(Br)c2)CN1 (stereo not drawn) : ~68 mg/kg

Pending compound:
Q: What ED50 value was documented for this compound, COC(=O)NC1=NC(c2cc(C)ccc2C)CN1 (stereo not drawn) ?
Result: ~100 mg/kg

----------
LD50 values, listed per item
- test_name: Lethal dose in mouse, in groups of ten
- Assay type: toxicity, organism-based
- reported_conditions: in vivo
Dear colleague, please return just the value in mg/kg, with no unit written.

Here's what some known entries look like.
COC(=O)NC1=NC(c2cccc(OC)c2)CN1C (centres undefined) : 250
COC(=O)NC1=NC(c2cc(OC)cc(OC)c2)CN1 (centres undefined) : 300
COC(=O)NC1=NC(c2ccc(Cl)cc2)CN1 (centres undefined) : 500
COC(=O)NC1=NC(c2ccc(C(F)(F)F)cc2)CN1 (centres undefined) : 700
COC(=O)NC1=NC(c2ccccc2F)CN1C (centres undefined) : 254

Q: Could you tell me which LD50 is on file for COC(=O)NC1=NC(c2ccc(OC(C)=O)cc2)CN1C (centres undefined) ?
Result: 700

Q: Can you check COC(=O)NC1=NC(c2cc(C)ccc2C)CN1 (centres undefined) next?
Result: 700

Q: Item: COC(=O)NC1=NC(c2ccccc2Cl)CN1 (centres undefined)
Result: 500

Cited source: ChEMBL document CHEMBL1122650
